// compounds with IC50 on PDE1C (Homo sapiens, UniProt Q14123), multi-source literature
observation.type: IC50 (nM)

# compound, numeric.result
rows = [
    ("CCn1c(C)cn2c(C3CCOCC3)ncc2c1=O", 1740),
    ("CC1OCCC1c1ncc2c(=O)n(C)c(Cc3ccc(-c4cccc(F)n4)cc3)cn12 (single isomer, unassigned; isomer 2)", 148),
    ("CC(C)c1nn(C)c2nc(-c3cccs3)cc(NCc3ncn(C)n3)c12", 46),
    ("COc1ncc(C)cc1-c1cc(N[C@@H]2CCOC2)c2c(cnn2C(C)C)n1", 1820),
    ("CCCn1c(=O)c2nnc(C3(C4CC4)CC3)n2c2ncc(C)cc21", 2.77),
    ("CCCCn1c(=O)c2nnc(C3(C)CC3)n2c2ncc(C)cc21", 2.57),
    ("Cc1nc(C(C)C)c2c(NCc3ncn(C)n3)cc(-c3cccc4ncoc34)nn12", 2.5),
]

----------
// molecules with pIC50 on PDE1C (Homo sapiens, UniProt Q14123), multi-source literature
pIC50: −log10 of the molar value.

# molecule, pIC50
measured = [
    ("CCOc1ncccc1-c1cc(NCc2ccnc(OC)c2)c2c(C(C)CC)nc(C)n2n1 (single isomer, unassigned; (-))", 8.36),
    ("CCOc1ncccc1-c1cc(NCc2cc[nH]n2)c2c(C(C)CC)nc(C)n2n1 (single isomer, unassigned; (+))", 7.51),
    ("CCOc1ncccc1-c1cc(NCc2cnn(C)c2)c2c(C(C)C)nc(C)n2n1", 7.80),
    ("CC(C)n1ncc2nc(-c3cccnc3OC(C)(C)C)cc(N[C@@H]3CCOC3)c21", 5.49),
    ("CCOc1ncccc1-c1cc(NCc2ncn(C)n2)c2c(C(C)C)nc(C)n2n1", 8.59),
    ("COc1ccc(Cn2c(C)cn3c(N4CCOC(C)(C)C4)ncc3c2=O)cc1", 6.87),
]

----------
// compounds with IC50 on PDE1C (Homo sapiens, UniProt Q14123), multi-source literature

# compound, IC50
data = [
    ("CCC(Cn1c(=O)c2nnc(C3(C4CC4)CC3)n2c2ncccc21)OC (single isomer, unassigned)", "1.46 nM"),
    ("CC(C)c1ncc2c(=O)n3c(nn12)NC(c1ccc(Cl)cc1)CC3 (stereo not shown)", "1000 to 10000 nM"),
    ("Cc1cn2c(C3CCOCC3)ncc2c(=O)n1Cc1ccc(OC(F)(F)F)cc1", "52 nM"),
    ("CCOc1ncccc1-c1cc(NCc2ccnc(OC)c2)c2c(C(C)C)nn(C)c2n1", "18 nM"),
]

----------
// molecules with IC50 on PDE1C (Homo sapiens), multi-source literature
observation.type: IC50

# molecule, result
data = [
    ("COc1ccc(C2CCn3c(nn4c(C5CCOCC5)ncc4c3=O)N2)cc1 (stereo not drawn)", "< 1000 nM"),
    ("CCOc1ncccc1-c1cc(NCc2cc[nH]n2)c2c(C(C)C)nn(C)c2n1", "58 nM"),
    ("COc1ccc(Cn2c(C)cn3c(C4CCOCC4)ncc3c2=O)cc1Cl", "46 nM"),
    ("CCCCn1c(=O)c2nnc(C3(C4CC4)CC3)n2c2ncc(CO)cc21", "< 0.5 nM"),
    ("CC(C)n1ncc2nc(-c3cccc4c3OCO4)cc(N[C@@H]3CCOC3)c21", "1200 nM"),
    ("CCOc1ncccc1-c1cc(N[C@@H]2CCCOC2)c2c(cnn2C(C)C)n1", "2870 nM"),
    ("CCC1(c2nnc3c(=O)n(CC4CCCCO4)c(C)c(C)n23)CC1 (racemic)", "7.76 nM"),
    ("Cc1cn2c(C3CCOCC3)ncc2c(=O)n1Cc1ccc(F)cc1", "17 nM"),
    ("COc1ccc2c(N[C@@H]3COC[C@H]3OC)ncnc2c1OC (relative stereo)", "1300 nM"),
    ("CCC1(Nc2ncnc3c(OC)c(OC)ccc23)CCOC1 (stereo not drawn)", "220 nM"),
    ("CC(C)c1nn(C)c2nc(-c3ccccc3)cc(NCc3ncn(C)n3)c12", "36 nM"),
    ("CCOc1ncccc1-c1cc(NCc2cnc(C)s2)c2c(C(C)C)nn(C)c2n1", "13 nM"),
    ("CCOc1ncccc1-c1cc(NC)c2c(n1)c(C)nn2C(C)C", "111 nM"),
    ("CO[C@H](C)c1ncc2c(=O)n3c(nn12)N[C@@H](c1ccc(Cl)cc1)CC3", "1000 to 10000 nM"),
    ("CC(C)n1ncc2nc(-c3cnn4ccccc34)cc(N[C@@H]3CCOC3)c21", "2140 nM"),
    ("CCCOc1nnccc1-c1cc(NCc2ncn(C)n2)c2c(C(C)C)nn(C)c2n1", "19 nM"),
    ("Cc1cn2c(C3CCOCC3)ncc2c(=O)n1Cc1ccc(O)cc1", "84 nM"),
    ("CCOc1ncccc1-c1cc(N[C@H]2CCCOC2)c2c(cnn2C(C)C)n1", "2700 nM"),
]

----------
// compounds with IC50 on PDE1C (Homo sapiens, UniProt Q14123), multi-source literature
IC50 strictly under 40 nM means 1; at 40 nM or over means -1.

# compound, label.value
data = [
    ("O=c1c2cnc(C3CCOCC3)n2ncn1CC1CCCCCC1", 1),
    ("O=c1c2cnc(C3CCOCC3)n2ccn1CC1CCCCCC1", 1),
    ("COc1ccc(Cn2c(C)cn3c(N4CCOCC4)ncc3c2=O)cc1", -1),
    ("COc1ccc(Cn2c(Cc3ccc(-c4ccccn4)cc3)cn3c(C4CCOCC4)ncc3c2=O)cc1", 1),
    ("CCCc1ncc2c(=O)n(Cc3cccc(F)c3)ccn12", -1),
    ("COc1ccc(Cn2c(C)cn3c(C4CCOCC4C)ncc3c2=O)cc1 (stereo not drawn)", 1),
    ("Cc1cccc(-c2ccc(Cc3cn4c(C5CCOCC5)ncc4c(=O)n3C)cc2)n1", -1),
    ("Cc1cccc(Cn2c(C)nn3c(C4CCOCC4)ncc3c2=O)c1", 1),
    ("COc1ncncc1-c1cc(N[C@@H]2CCOC2)c2c(cnn2C(C)C)n1", -1),
    ("CCOc1ncc(C#N)cc1-c1cc(N[C@@H]2CCOC2)c2c(cnn2C(C)C)n1", -1),
    ("O=c1c2cnc(C3CC3)n2ccn1CC1CCCCC1", -1),
    ("COc1ccc2c(N(Cc3ccccc3)[C@@H]3CCOC3)ncnc2c1OC", -1),
    ("CCCc1ncc2c(=O)n(C)c(Cc3ccc(-c4cccc(F)n4)cc3)cn12", -1),
    ("Cc1cn2c(C3CCOCC3)ncc2c(=O)n1Cc1ccccc1", 1),
]

----------
// compounds with log10 IC50 on PDE1C (Homo sapiens), multi-source literature
observation.type: log10 IC50 (log10 of the value in nM)

# compound, system.name, observation.type, numeric.result
records = [
    ("COc1ccc(Cn2c(C)cc3c(cnn3C3CCOCC3)c2=O)cn1", "PDE1C (Homo sapiens)", "log10 IC50", 3.07),
    ("CCOc1ncccc1-c1cc(NCc2cc(OC)ccn2)c2c(C(C)C)nn(C)c2n1", "PDE1C (Homo sapiens)", "log10 IC50", 1.40),
    ("COc1ncccc1-c1cc(N[C@@H]2CCOC2)c2c(cnn2C(C)C)n1", "PDE1C (Homo sapiens)", "log10 IC50", 3.03),
    ("Cc1ccc(Cc2nn3c(C4CCOCC4)ncc3c(=O)n2C)cc1", "PDE1C (Homo sapiens)", "log10 IC50", 2.99),
    ("CCOc1nnccc1-c1cc(NCc2cnn(C)c2)c2c(n1)c(C)nn2C(C)CC (single isomer, unassigned)", "PDE1C (Homo sapiens)", "log10 IC50", 1.04),
    ("COc1ccc(Cn2c(C)cn3c(C4CC(C)OC(C)C4)ncc3c2=O)cc1 (stereo not drawn)", "PDE1C (Homo sapiens)", "log10 IC50", 2.53),
    ("COc1ccc2c(NC3(C)CCOC3)ncnc2c1OC (stereo not drawn)", "PDE1C (Homo sapiens)", "log10 IC50", 2.20),
    ("Cn1c(Cc2ccc(-c3cccc(F)n3)cc2)cn2c(CC(F)(F)F)ncc2c1=O", "PDE1C (Homo sapiens)", "log10 IC50", 2.60),
    ("CCOc1ncccc1-c1ccn2c(C(C)C)nc(C)c2n1", "PDE1C (Homo sapiens)", "log10 IC50", 2.33),
]

----------
// compounds with IC50 on PDE1C (Homo sapiens), multi-source literature

# structure.smiles, value.modifier, IC50 / nM
records = [
    ("COc1cccc(Cn2c(C)cn3c(C4CCOCC4)ncc3c2=O)c1", "=", 62),
    ("COc1ccc2c(N(Cc3ccccc3)[C@H]3CCOC3)ncnc2c1OC", "=", 1400),
    ("COc1ccc(Cn2c(C)cn3c(N4CCCOCC4)ncc3c2=O)cc1", "=", 128),
    ("CC(C)n1ncc2c(=O)n3c(nc21)N[C@@H](c1ccc(Cl)cc1)C3", "<", 1000),
    ("CCOc1ncccc1-c1cc(NCc2nc(C)no2)c2c(C(C)C)nn(C)c2n1", "=", 63),
]
